- Assay notes: differential scanning calorimetry (DSC), thermal stability
- Format: physicochemical
- Conditions: thermal decomposition
Measured Tm dec. (° C.), listed per entry.

Compound | Tm dec. (° C.), °C
Fc1ccc(C2(c3ccc(F)cc3)OOC3(CCC(c4ccccc4)CC3)O2)cc1 (stereo not drawn) [OZ66] | 198.5
O=C1CCC2(CC1)OOC1(CCCCCCCCCCC1)O2 [OZ21] | 190.7
CS(=O)(=O)N1CCC2(CC1)OOC1(O2)C2CC3CC(C2)CC1C3 (stereo not drawn) [OZ56] | 158.0
FC(F)(F)c1cccc(C2(c3cccc(C(F)(F)F)c3)OOC3(O2)C2CC4CC(C2)CC3C4)c1 (stereo not drawn) [OZ46] | 161.3
CON=C1CC2CC3(CC2C1)OOC1(O3)C2CC3CC(C2)CC1C3 (stereo not drawn) [OZ37] | 151.2
CC(C)(C)C1CCC2(CC1)OOC1(O2)C2CC3CC(C2)CC1C3 (stereo not drawn) [OZ18] | 166.5
c1ccc(C2(c3ccccn3)OOC3(O2)C2CC4CC(C2)CC3C4)nc1 (stereo not drawn) [OZ81] | 150.7
CCS(=O)(=O)N1CCC2(CC1)OOC1(O2)C2CC3CC(C2)CC1C3 (stereo not drawn) [OZ79] | 153.6
O=C(CCl)N1CCC2(CC1)OOC1(O2)C2CC3CC(C2)CC1C3 (stereo not drawn) [OZ87] | 149.7

###

The entries below are paired with their reported Tm dec. (° C.).
- Assay notes: differential scanning calorimetry (DSC), thermal stability
- Assay type: physicochemical
- Conditions: thermal decomposition

Molecule | Unit of measurement | Tm dec. (° C.)
c1ccc(C2CCC3(CC2)OOC2(O3)C3CC4CC(C3)CC2C4)cc1 (stereo not shown) [OZ27] | °C | 161.7
O=C1c2ccccc2C(=O)N1N=C1CCC2(CC1)OOC1(O2)C2CC3CC(C2)CC1C3 (stereo not shown) [OZ38] | °C | 165.1
c1ccc(CC2(Cc3ccccc3)OOC3(O2)C2CC4CC(C2)CC3C4)cc1 (stereo not shown) [OZ52] | °C | 154.9
O=C1CCC2(CCO1)OOC1(O2)C2CC3CC(C2)CC1C3 (stereo not shown) [OZ17] | °C | 158.4
Fc1ccc(C2(c3ccc(F)cc3)OOC3(O2)C2CC4CC(C2)CC3C4)cc1 (stereo not shown) [OZ44] | °C | 157.5
CCCC1CCC2(CC1)OOC1(O2)C2CC3CC(C2)CC1C3 (stereo not shown) [OZ25] | °C | 167.7
O=S(=O)(c1ccc(Cl)cc1)N1CCC2(CC1)OOC1(O2)C2CC3CC(C2)CC1C3 (stereo not shown) [OZ57] | °C | 158.0

###

Below, each of the compounds is paired with its reported in vitro potency, fold less potent than the analog value.
- System: chloroquine-resistant K1 strain of P. falciparum
- Assay notes: in vitro screen against chloroquine-resistant K1 strain of P. falciparum
- Format: cell-based
- Conditions: in vitro
Measure name: in vitro potency, fold less potent than the analog

Compound | Obs value
c1ccc(CON=C2CCC3(CC2)OOC2(O3)C3CC4CC(C3)CC2C4)cc1 (stereo not drawn) | ~2 fold
CC1(C)COC2(CCC3(CC2)OOC2(CC(C)(C)CC(C)(C)C2)O3)OC1 | ~20 fold

###

- Tested on: P. berghei
- Assay notes: 1-day Peters test against P. berghei in vivo
- Conditions: 1 day, po

Compound | Subject of test | P. berghei (1 day) ED50 po, mg/kg
Fc1ccc(C2CCC3(CC2)OOC2(O3)C3CC4CC(C3)CC2C4)cc1 (centres unmarked) [OZ41] | P. berghei | 2.8
O=C1CCC2(CC1)OOC1(O2)C2CC3CC(C2)CC1C3 (centres unmarked) [OZ05] | P. berghei | 3.5
CCOC(=O)N1CCC2(CC1)OOC1(O2)C2CC3CC(C2)CC1C3 (centres unmarked) [OZ23] | P. berghei | 1.6
c1ccc(CON=C2CCC3(CC2)OOC2(O3)C3CC4CC(C3)CC2C4)cc1 (centres unmarked) [OZ19] | P. berghei | 3.4
c1ccc2c(c1)COC1(CCC3(CC1)OOC1(O3)C3CC4CC(C3)CC1C4)OC2 (centres unmarked) [OZ31] | P. berghei | 1.6

###

Listed below: Tm dec. (° C.) values for each entry.
- Assay notes: differential scanning calorimetry (DSC), thermal stability
- Assay type: physicochemical
- Conditions: thermal decomposition

Compound | Tm dec. (° C.), °C
O=[N+]([O-])c1ccc(NN=C2CCC3(CC2)OOC2(O3)C3CC4CC(C3)CC2C4)c([N+](=O)[O-])c1 (stereo not drawn) [OZ29] | 155.7
O=S(=O)(c1ccccc1)N1CCC2(CC1)OOC1(O2)C2CC3CC(C2)CC1C3 (stereo not drawn) [OZ60] | 152.6
c1ccc2c(c1)COC1(CCC3(CC1)OOC1(O3)C3CC4CC(C3)CC1C4)OC2 (stereo not drawn) [OZ31] | 161.1
CC1(O)CCC2(CC1)OOC1(O2)C2CC3CC(C2)CC1C3 (stereo not drawn) [OZ90] | 153.2
c1ccc(CON=C2CCC3(CC2)OOC2(O3)C3CC4CC(C3)CC2C4)cc1 (stereo not drawn) [OZ19] | 157.8
O=C(OCCC1CCC2(CC1)OOC1(O2)C2CC3CC(C2)CC1C3)c1ccc([N+](=O)[O-])cc1 (stereo not drawn) [OZ88] | 158.9
Clc1ccc(C2(c3ccc(Cl)cc3)OOC3(O2)C2CC4CC(C2)CC3C4)cc1 (stereo not drawn) [OZ43] | 155.8
O=C1CC2CC3(CC2C1)OOC1(O3)C2CC3CC(C2)CC1C3 (stereo not drawn) [OZ12] | 149.8
CC1(C)COC2(CCC3(CC2)OOC2(O3)C3CC4CC(C3)CC2C4)OC1 (stereo not drawn) [OZ11] | 162.4
